Tested on: astro (control astrocytes)
Assay: Drug repurposing screens with cells derived from glioblastoma tumor samples (AID 1345199); further: nearly all actives have a fitted effect of over 40% in size
Conditions: viability, ATP luminescence, 48 h; series mostly up to 45.9 µM
Inconclusive results are not listed. Calls of active or inactive are those of the source. The call rests on the fitted dose curve; in most records, active means well fitted inhibition curve with a large enough effect; inconclusive means small, poorly fitted or top-dose-only effect; inactive means flat fitted curve, though single readings scatter.
endpoint label: outcome

Past entries and their recorded results:
C[N+]1(CCC(C(N)=O)(c2ccccc2)c2ccccc2)CCCCC1 : inactive
CN1C(=O)CN=C(c2ccccc2)c2cc(Cl)ccc21 : inactive
COc1ccc2c(C(=O)c3ccc(Cl)cc3)c(C)n(CC(=O)O)c2c1 : inactive
CC(C)C(Br)C(=O)NC(N)=O (configuration not stated) : inactive
CCCCC1C(=O)NC(=O)N(C2CCCCC2)C1=O (configuration not stated) : inactive

Q: # lookup: outcome of "CC(C)(O)C(Cl)(Cl)Cl"
Ans: inactive

Q: Try this compound next: CNC(C)Cc1ccccc1OC (configuration not stated)
Ans: inactive

###

Conditions: Ebola virus entry assay, reporter ratio channel; Channel type: primary
Activity calls are given as the source filed them. No rule for the calls is given here.
Answer with one of the outcomes active, inactive

Q: What outcome does the record of this test show for "CN(C(=O)CCCOc1ccc2[nH]c(=O)ccc2c1)C1CCCCC1" ?
Ans: inactive

Q: Please do the same for Nc1ccccc1C(=O)OCC(O)CO (stereo unspecified) as well.
Ans: inactive

Q: Could you do the same for "CC[C@H](c1ccc(O)cc1)[C@@H](CC)c1ccc(O)cc1" , please?
Ans: active

Q: How about this molecule: "C[C@@H]1C[C@H]2[C@@H]3C[C@H](F)C4=CC(=O)C(Cl)=C[C@]4(C)[C@@]3(F)[C@@H](O)C[C@]2(C)[C@@]1(O)C(=O)CO"
Ans: active

Q: Try this molecule next: "CCN(CC)CC(=O)Nc1c(C)cccc1C(=O)OC"
Ans: inactive

Q: "CCC(=O)O[C@H]1CC[C@H]2[C@@H]3CCC4=CC(=O)CC[C@]4(C)[C@H]3CC[C@]12C" , same question.
Ans: inactive

Q: Now consider "CC1(C)O[C@@H]2C[C@H]3[C@@H]4C[C@H](F)C5=CC(=O)C=C[C@]5(C)[C@H]4[C@@H](O)C[C@]3(C)[C@]2(C(=O)CO)O1" .
Ans: inactive

Q: Next molecule up: "COc1ccc(CN2CCN(C(c3ccc(F)cc3)c3ccc(F)cc3)CC2)c(OC)c1OC"
Ans: active

Q: Entry to check: "C[C@H]1O[C@@H](O[C@H]2CC[C@@]3(C)[C@H](CC[C@@H]4[C@@H]3C[C@@H](O)[C@]3(C)[C@@H](C5=CC(=O)OC5)CC[C@]43O)C2)C[C@H](O)[C@@H]1O[C@H]1C[C@H](O)[C@H](O[C@H]2C[C@H](O)[C@H](O[C@@H]3O[C@H](CO)[C@@H](O)[C@H](O)[C@H]3O)[C@@H](C)O2)[C@@H](C)O1"
Ans: active

Q: Note, next up: CCC1(c2cccc(O)c2)CCCCN(C)C1 (stereo unspecified)
Ans: active

Q: Cool, now "NS(=O)(=O)c1cc(C(=O)O)c(NCc2ccco2)cc1Cl"
Ans: inactive

Q: Quick one: "CC1(C)[C@H](C(=O)O)N2C(=O)C[C@H]2S1(=O)=O"
Ans: active

Q: // query: "CCC(=O)c1ccc(O)cc1"
Ans: inactive

Q: And "CN1C[C@H](C(=O)N[C@]2(C)O[C@@]3(O)[C@@H]4CCCN4C(=O)[C@H](Cc4ccccc4)N3C2=O)C[C@@H]2c3cccc4[nH]cc(c34)C[C@H]21" ?
Ans: active

Q: Could you do the same for "C[C@H]1COc2c(C3(N)CC3)c(F)cc3c(=O)c(C(=O)O)cn1c23" , please?
Ans: inactive

Q: Entry to check: "CNC[C@H](O)c1ccc(O)c(O)c1"
Ans: inactive

###

Experiment: qHTS of pediatric cancer cell lines to identify multiple opportunities for drug repurposing: Primary screen for LAN-5 cells (AID 1347100);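 further: plate controls were DMSO neutral control for no effect and bortezomib positive control for full effect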
Conditions: LAN-5 neuroblastoma viability, CellTiter-Glo luminescence, 48 h; series mostly up to 46 µM
Inconclusive results are not listed. Activity calls are given as the source filed them. Calls come from the whole dose curve; as a rule, active = well fitted cell-killing curve with a large enough effect; inconclusive = small, poorly fitted or top-dose-only effect; inactive = no such curve, though single readings can be large or run the other way.
endpoint label: outcome

CC(Cc1ccc2c(c1)OCO2)NO (centres undefined) : inactive
CN1C2CCC(C)(C)C1CC(OC(=O)C(O)(c1cccs1)c1cccs1)C2 (centres undefined) : inactive
CC[C@]1(O)CC[C@H]2[C@@H]3CCC4=CCCC[C@@H]4[C@H]3CC[C@@]21C : inactive
CCOP(=S)(OCC)O/N=C(\C#N)c1ccccc1 : inactive

###

Assay: Confirmatory qHTS for activators (rescue) of SARS-CoV-2 Cytopathic Effect (CPE) (AID 1508606); further: potency means the concentration at half of the fitted maximal effect; nearly all actives have a fitted effect of over 70% in size
Settings: Vero E6 SARS-CoV-2 CPE rescue, viability luminescence; series mostly up to 20 µM
Inconclusive results are not listed. Active and inactive are the calls of the source. The call rests on the fitted dose curve.
endpoint label: Potency

Q: Bench note: what Potency did "CN(C)CCCN1c2ccccc2Sc2ccc(C(F)(F)F)cc21" show?
Ans: 10 µM (active)

Q: Also, "O=c1[nH]c2ccccc2n1CCCN1CCN(C(c2ccccc2)c2ccccc2)CC1" please.
Ans: 11.2 µM (active)

Q: Now consider "CN(C)[C@@H](CCOc1cccc2ccccc12)c1ccccc1" .
Ans: 10 µM (active)

Q: Now consider CN1CCCN(C(c2ccccc2)c2ccc(Cl)cc2)CC1 (stereo unspecified) .
Ans: 10 µM (active)

Q: Proceed to "COc1ccc2cc1Oc1ccc(cc1)C[C@H]1c3c(cc4c(c3Oc3cc5c(cc3OC)CCN(C)[C@@H]5C2)OCO4)CCN1C"
Ans: 1 µM (active)

Q: Queued: CCCCN(CCCC)CCC(O)c1cc2c(Cl)cc(Cl)cc2c2cc(C(F)(F)F)ccc12 (stereo unspecified)
Ans: 3.55 µM (active)

###

System: TAB165
Assay: qHTS profiling for inhibitors of Plasmodium falciparum proliferation (AID 504749); further: nearly all actives have a fitted effect of over 60% in size
Conditions: P. falciparum in erythrocytes, SYBR Green DNA, 72 h; series mostly up to 28.7 µM
Records with an inconclusive call do not appear. Active and inactive are the calls of the source. The call rests on the fitted dose curve; in most records, active means well fitted inhibition curve with a large enough effect; inconclusive means small, poorly fitted or top-dose-only effect; inactive means flat fitted curve, though single readings scatter.
Could you please pick one outcome from this set? 1 (yes) = active, 0 (no) = inactive

Q: I'd appreciate the recorded outcome for "OC(c1ccccc1)(c1ccccc1)C1CCNCC1" from this test.
Ans: 0 (no)

Q: Moving on to "CCN(Cc1ccc(Cl)nc1)/C(=C/[N+](=O)[O-])NC"
Ans: 0 (no)

Q: Now consider "CN1C(=O)[C@@H](NC(=O)c2cc3ccccc3[nH]2)N=C(c2ccccc2)c2ccccc21" .
Ans: 1 (yes)

Q: Same lookup for "COc1ccc(C(=O)N2CCCC2=O)cc1" , please.
Ans: 0 (no)

Q: Can you handle "C[C@H]1C(=O)O[C@@H]2CCN3CC=C(COC(=O)[C@](C)(O)[C@]1(C)O)[C@H]23" next?
Ans: 0 (no)

Q: Now consider "Cc1ncc2n1-c1ccc(Cl)cc1C(c1ccccc1F)=NC2" and answer again.
Ans: 0 (no)

###

Tested on: ATS189
Assay: qHTS profiling for inhibitors of Plasmodium falciparum proliferation (AID 504749); further: nearly all actives have a fitted effect of over 60% in size
Conditions: P. falciparum in erythrocytes, SYBR Green DNA, 72 h; series mostly up to 28.7 µM
Inconclusive results are not listed. Active and inactive are the calls of the source. The call rests on the fitted dose curve; in most records, active means well fitted inhibition curve with a large enough effect; inconclusive means small, poorly fitted or top-dose-only effect; inactive means flat fitted curve, though single readings scatter.
Respond only with the outcome that fits, drawn from active, inactive

Q: Could you check what this test reported for C=CCOC(Cn1ccnc1)c1ccc(Cl)cc1Cl (stereo not given) ?
Ans: active

Q: What about "OC(c1ccccc1)(c1ccccc1)C1CCNCC1" ?
Ans: inactive

Q: Same read-out for "C[C@H]1C(=O)O[C@@H]2CCN3CC=C(COC(=O)[C@](C)(O)[C@]1(C)O)[C@H]23" ?
Ans: inactive

Q: Also "C[C@]12C=CC(=O)C=C1CC[C@@H]1[C@@H]2CC[C@@]2(C)[C@H]1CC[C@]2(C)O" ?
Ans: inactive

Q: Param item: "COP(=O)(OC)OC=C(Cl)Cl"
Ans: inactive

###

Tested on: CP247
Test: qHTS profiling for inhibitors of Plasmodium falciparum proliferation (AID 504749); further: nearly all actives have a fitted effect of over 60% in size
Conditions: P. falciparum in erythrocytes, SYBR Green DNA, 72 h; series mostly up to 28.7 µM
Results filed as inconclusive are left out. Active and inactive are the calls of the source. Calls come from the whole dose curve; as a rule, active = well fitted inhibition curve with a large enough effect; inconclusive = small, poorly fitted or top-dose-only effect; inactive = flat fitted curve, though single readings scatter.
endpoint label: outcome

OC(c1ccccc1)(c1ccccc1)C1CCNCC1 : inactive
C[C@]12Cc3nonc3C[C@@H]1CC[C@@H]1[C@@H]2CC[C@@]2(C)[C@H]1CC[C@]2(C)O : inactive
ClC1=C(Cl)C2(Cl)C(CBr)CC1(Cl)C2(Cl)Cl (stereo not drawn) : inactive

###

Settings: Ebola virus entry assay, ratio channel
Calls of active or inactive are those of the source. The rule behind the calls is not given here. Square brackets hold non-standard residues; d marks the D form. Peptide text beside a SMILES is read from it. * marks the point of attachment. Sta = CC(C)C[C@H](N)[C@@H](O)CC(=O)O; Isovaleryl = CC(C)CC(=O)*
Parameter call: string, one of active, inactive

Q: Recorded call for "CCCOC(C(=O)OC1CCN(C)CC1)(c1ccccc1)c1ccccc1" ?
Ans: active

Q: Same read-out for CC(C)CC(=O)N[C@H](C(=O)N[C@H](C(=O)N[C@@H](CC(C)C)[C@@H](O)CC(=O)N[C@@H](C)C(=O)N[C@@H](CC(C)C)[C@@H](O)CC(=O)O)C(C)C)C(C)C (Isovaleryl-VV[Sta]A[Sta]-OH) ?
Ans: inactive

Q: And then CN(C)C(=O)Oc1cc(OC(=O)N(C)C)cc(C(O)CNC(C)(C)C)c1 (centres undefined) , what is it?
Ans: inactive

Q: Then "Cc1cc(C2CCCCC2)n(O)c(=O)c1" ?
Ans: inactive

Q: Then CN1C(=O)CC(c2ccccc2)C1=O (centres undefined) ?
Ans: inactive

Q: Now consider "NNc1nnc(NN)c2ccccc12" and answer again.
Ans: inactive

Q: Cool, now "CNC(=O)c1c(I)c(NC(=O)CCCCC(=O)Nc2c(I)c(C(=O)O)c(I)c(C(=O)NC)c2I)c(I)c(C(=O)O)c1I"
Ans: inactive

Q: Moving on to CCN(CC)CCOC(=O)C(c1ccccc1)C1CCCCC1 (centres undefined)
Ans: active

Q: Param item: CCN1CCCC1CNC(=O)C(O)(c1ccccc1)c1ccccc1 (centres undefined)
Ans: active

Q: And what about the molecule O=C1OC(OC(=O)c2cccnc2Nc2cccc(C(F)(F)F)c2)c2ccccc21 (centres undefined) ?
Ans: inactive

Q: // next record "CO/N=C(\C(=O)O)c1csc(NC(=O)CCl)n1"
Ans: inactive

Q: Repeat with "Cc1cc(O)c(C)c(C)c1O"
Ans: inactive

Q: Consider next the molecule "CC(C)=CCOc1ccc(/C=C/C(=O)c2ccc(OCC=C(C)C)cc2OCC(=O)O)cc1" in the same way.
Ans: inactive

Q: And then "CSc1ccc(/C=C2/C(C)=C(CC(=O)O)c3cc(F)ccc32)cc1" , what is it?
Ans: inactive
